Assay: Plasma pharmacokinetics of oral sorafenib in woodchucks (LC-MS/MS, noncompartmental analysis)
Assay type: in vivo, woodchuck (Marmota monax)
Conditions: plasma, po, 2.5 mg/kg, woodchuck plasma, oral 2.5 mg/kg, Day 19; read-out: AUC1–7 h, Geo Mean (%CV)
attribute.measured: AUC

Lab note: measured AUC of `CNC(=O)c1cc(Oc2ccc(NC(=O)Nc3ccc(Cl)c(C(F)(F)F)c3)cc2)ccn1` was 26800 ng·h/mL

* * *

Test: Plasma pharmacokinetics of oral sorafenib in woodchucks (LC-MS/MS, noncompartmental analysis)
Assay type: in vivo, woodchuck (Marmota monax)
Conditions: plasma, po, 2.5 mg/kg, woodchuck plasma, oral 2.5 mg/kg, Day 1; read-out: Cmax, Geo Mean (%CV)
attribute.measured: Cmax (ng/mL)
Your answer should be a plain number; it is taken to be in ng/mL.

Lab note: measured Cmax of `CNC(=O)c1cc(Oc2ccc(NC(=O)Nc3ccc(Cl)c(C(F)(F)F)c3)cc2)ccn1` was 136

* * *

Experiment: Plasma pharmacokinetics of oral sorafenib in woodchucks (LC-MS/MS, noncompartmental analysis)
Type: in vivo, woodchuck (Marmota monax)
Details: plasma, po, 5 mg/kg, woodchuck plasma, oral 5.0 mg/kg, Day 1; read-out: Cmax, Geo Mean (%CV)
attribute.measured: Cmax
Note: state the figure and append the unit.

Lab note: measured Cmax of `CNC(=O)c1cc(Oc2ccc(NC(=O)Nc3ccc(Cl)c(C(F)(F)F)c3)cc2)ccn1` was 1170 ng/mL

* * *

Assay: Plasma pharmacokinetics of oral sorafenib in woodchucks (LC-MS/MS, noncompartmental analysis)
Assay type: in vivo, woodchuck (Marmota monax)
Details: plasma, po, 2.5 mg/kg, woodchuck plasma, oral 2.5 mg/kg, Day 1; read-out: Tmax, Geo Mean (%CV)
Description: Woodchuck plasma study samples were analyzed for sorafenib with an LC-MS/MS assay using authentic standards of sorafenib and the internal standard (IS), d3-sorafenib, both obtained from Toronto Research Chemicals (Toronto, ON, Canada). Study samples were quantitated using calibration and quality control (QC) samples prepared by spiking sorafenib into sodium heparinized human plasma (Bioreclamation, LLC, Westbury, NY, USA). […]
attribute.measured: Tmax (h)
Your answer should be a plain number; it is taken to be in h.

Lab note: measured Tmax of `CNC(=O)c1cc(Oc2ccc(NC(=O)Nc3ccc(Cl)c(C(F)(F)F)c3)cc2)ccn1` was 5.92

* * *

Test: Plasma pharmacokinetics of oral sorafenib in woodchucks (LC-MS/MS, noncompartmental analysis)
Type: in vivo, woodchuck (Marmota monax)
Conditions: plasma, po, 5 mg/kg, woodchuck plasma, oral 5.0 mg/kg, Day 19; read-out: Cmax, Geo Mean (%CV)
attribute.measured: Cmax (ng/mL)
Your answer should be a plain number; it is taken to be in ng/mL.

Lab note: measured Cmax of `CNC(=O)c1cc(Oc2ccc(NC(=O)Nc3ccc(Cl)c(C(F)(F)F)c3)cc2)ccn1` was 7380

* * *

Assay: Plasma pharmacokinetics of oral sorafenib in woodchucks (LC-MS/MS, noncompartmental analysis)
Type: in vivo, woodchuck (Marmota monax)
Conditions: plasma, po, 5 mg/kg, woodchuck plasma, oral 5.0 mg/kg, Day 1; read-out: AUC1–7 h, Geo Mean (%CV)
Experimental: Woodchuck plasma study samples were analyzed for sorafenib with an LC-MS/MS assay using authentic standards of sorafenib and the internal standard (IS), d3-sorafenib, both obtained from Toronto Research Chemicals (Toronto, ON, Canada). Study samples were quantitated using calibration and quality control (QC) samples prepared by spiking sorafenib into sodium heparinized human plasma (Bioreclamation, LLC, Westbury, NY, USA). […]
attribute.measured: AUC (ng·h/mL)
Your answer should be a plain number; it is taken to be in ng·h/mL.

Lab note: measured AUC of `CNC(=O)c1cc(Oc2ccc(NC(=O)Nc3ccc(Cl)c(C(F)(F)F)c3)cc2)ccn1` was 5960

* * *

Assay: Plasma pharmacokinetics of oral sorafenib in woodchucks (LC-MS/MS, noncompartmental analysis)
Type: in vivo, woodchuck (Marmota monax)
Details: plasma, po, 2.5 mg/kg, woodchuck plasma, oral 2.5 mg/kg, Day 19; read-out: Cmax, Geo Mean (%CV)
attribute.measured: Cmax (ng/mL)
Your answer should be a plain number; it is taken to be in ng/mL.

Lab note: measured Cmax of `CNC(=O)c1cc(Oc2ccc(NC(=O)Nc3ccc(Cl)c(C(F)(F)F)c3)cc2)ccn1` was 4970

* * *

Assay: Plasma pharmacokinetics of oral sorafenib in woodchucks (LC-MS/MS, noncompartmental analysis)
Assay type: in vivo, woodchuck (Marmota monax)
Conditions: plasma, po, 5 mg/kg, woodchuck plasma, oral 5.0 mg/kg, Day 1; read-out: AUCAll, Geo Mean (%CV)
Method: Woodchuck plasma study samples were analyzed for sorafenib with an LC-MS/MS assay using authentic standards of sorafenib and the internal standard (IS), d3-sorafenib, both obtained from Toronto Research Chemicals (Toronto, ON, Canada). Study samples were quantitated using calibration and quality control (QC) samples prepared by spiking sorafenib into sodium heparinized human plasma (Bioreclamation, LLC, Westbury, NY, USA). […]
attribute.measured: AUC
Note: state the figure and append the unit.

Lab note: measured AUC of CNC(=O)c1cc(Oc2ccc(NC(=O)Nc3ccc(Cl)c(C(F)(F)F)c3)cc2)ccn1 [sorafenib, Sorafenib] was 21000 ng·h/mL

* * *

Assay: Plasma pharmacokinetics of oral sorafenib in woodchucks (LC-MS/MS, noncompartmental analysis)
Format: in vivo, woodchuck (Marmota monax)
Settings: plasma, po, 2.5 mg/kg, woodchuck plasma, oral 2.5 mg/kg, Day 1; read-out: AUCAll, Geo Mean (%CV)
attribute.measured: AUC (ng·h/mL)
Your answer should be a plain number; it is taken to be in ng·h/mL.

Lab note: measured AUC of CNC(=O)c1cc(Oc2ccc(NC(=O)Nc3ccc(Cl)c(C(F)(F)F)c3)cc2)ccn1 [sorafenib, Sorafenib] was 2600
